# Test system: HCT116 carcinoma
# conditions: iv, 1440 h
Field: Complete Response. Provide a value for each of the molecules that follow.
Give bare numbers.

Okay, here is my list. What is Complete Response for each of these?
1. CCCC(=O)O[C@H]1C(=O)[C@@]2(C)[C@H]([C@H](OC(=O)c3ccccc3)[C@]3(O)C[C@H](OC(=O)[C@H](O)[C@H](C=C(C)C)NC(=O)OC(C)(C)C)C(C)=C1C3(C)C)[C@]1(OC(C)=O)CO[C@@H]1C[C@@H]2O
2. CCC(=O)O[C@H]1C(=O)[C@@]2(C)[C@H]([C@H](OC(=O)c3ccccc3)[C@]3(O)C[C@H](OC(=O)[C@H](O)[C@@H](NC(=O)c4ccccc4)c4ccoc4)C(C)=C1C3(C)C)[C@]1(OC(C)=O)CO[C@@H]1C[C@@H]2O
3. CCC(=O)O[C@H]1C(=O)[C@@]2(C)[C@H]([C@H](OC(=O)c3ccccc3)[C@]3(O)C[C@H](OC(=O)[C@H](O)[C@@H](NC(=O)c4ccccc4)C4CC4)C(C)=C1C3(C)C)[C@]1(OC(C)=O)CO[C@@H]1C[C@@H]2O
4. CCC(=O)O[C@H]1C(=O)[C@@]2(C)[C@H]([C@H](OC(=O)c3ccccc3)[C@]3(O)C[C@H](OC(=O)[C@H](O)[C@@H](NC(=O)c4ccccc4)c4ccco4)C(C)=C1C3(C)C)[C@]1(OC(C)=O)CO[C@@H]1C[C@@H]2O
5. CCCC(=O)O[C@H]1C(=O)[C@@]2(C)[C@H]([C@H](OC(=O)c3ccccc3)[C@]3(O)C[C@H](OC(=O)[C@H](O)[C@@H](NC(=O)OC(C)(C)C)c4ccco4)C(C)=C1C3(C)C)[C@]1(OC(C)=O)CO[C@@H]1C[C@@H]2O
6. CCCC(=O)O[C@H]1C(=O)[C@@]2(C)[C@H]([C@H](OC(=O)c3ccccc3)[C@]3(O)C[C@H](OC(=O)[C@H](O)[C@@H](NC(=O)OC(C)(C)C)c4ccsc4)C(C)=C1C3(C)C)[C@]1(OC(C)=O)CO[C@@H]1C[C@@H]2O
7. CCCC(=O)O[C@H]1C(=O)[C@@]2(C)[C@H]([C@H](OC(=O)c3ccccc3)[C@]3(O)C[C@H](OC(=O)[C@H](O)[C@@H](NC(=O)OC(C)(C)C)c4cccs4)C(C)=C1C3(C)C)[C@]1(OC(C)=O)CO[C@@H]1C[C@@H]2O

A:
1. 1
2. 2
3. 1
4. 2
5. 2
6. 3
7. 2

----------
# Test system: VM46 colon carcinoma
# conditions: number of mice; i.v. qd x 1; mg/kg: Taxol 24, 0499 77, 0503 72.6, 0670 123.1, 0706 107.6, 0838 72.6, 0854 46.6, 0983 67.4, Taxotere 70; 6 mice/group; Day 64
quantity: Complete Response
One number for each entry.

Below, each entry is followed by its recorded Complete Response result.
INSERT INTO results (molecule, test_value) VALUES
  ('CCC(=O)O[C@H]1C(=O)[C@@]2(C)[C@H]([C@H](OC(=O)c3ccccc3)[C@]3(O)C[C@H](OC(=O)[C@H](O)[C@@H](NC(=O)OC(C)(C)C)c4ccccn4)C(C)=C1C3(C)C)[C@]1(OC(C)=O)CO[C@@H]1C[C@@H]2O', 0),
  ('CCC(=O)O[C@H]1C(=O)[C@@]2(C)[C@H]([C@H](OC(=O)c3ccccc3)[C@]3(O)C[C@H](OC(=O)[C@H](O)[C@@H](NC(=O)c4ccccc4)C4CC4)C(C)=C1C3(C)C)[C@]1(OC(C)=O)CO[C@@H]1C[C@@H]2O', 1);

We next turn to a different molecule, shown below.
Q: // Input: CC(=O)O[C@@]12CO[C@@H]1C[C@H](O)[C@@]1(C)C(=O)[C@H](O)C3=C(C)[C@@H](OC(=O)[C@H](O)[C@@H](NC(=O)OC(C)(C)C)c4ccccc4)C[C@@](O)([C@@H](OC(=O)c4ccccc4)[C@H]21)C3(C)C [Taxotere, docetaxel, reference compound] . Output its Complete Response only.
A: 0

----------
# System: Panc-1 pancreatic carcinoma
# assay-method-text: In vivo evaluation against Panc-1 human pancreatic carcinoma (Example 17)
# conditions: number of mice; i.v. qd x 1; mg/kg: Taxol 36, 0499 77, 0503 72.6, 0670 123.1, 0706 107.6, 0838 72.6, 0854 76.9; 6 mice/group
Field: Toxic Deaths. Provide a value for each of the compounds that follow.

Okay, here is my list. What is Toxic Deaths for each of these?
1. CCC(=O)O[C@H]1C(=O)[C@@]2(C)[C@H]([C@H](OC(=O)c3ccccc3)[C@]3(O)C[C@H](OC(=O)[C@H](O)[C@@H](NC(=O)c4ccccc4)c4ccoc4)C(C)=C1C3(C)C)[C@]1(OC(C)=O)CO[C@@H]1C[C@@H]2O
2. CC(=O)O[C@@]12CO[C@@H]1C[C@H](O)[C@@]1(C)C(=O)[C@H](OC(=O)C3CC3)C3=C(C)[C@@H](OC(=O)[C@H](O)[C@H](C=C(C)C)NC(=O)OC(C)(C)C)C[C@@](O)([C@@H](OC(=O)c4ccccc4)[C@H]21)C3(C)C
3. CC(=O)O[C@H]1C(=O)[C@@]2(C)[C@H]([C@H](OC(=O)c3ccccc3)[C@]3(O)C[C@H](OC(=O)[C@H](O)[C@@H](NC(=O)c4ccccc4)c4ccccc4)C(C)=C1C3(C)C)[C@]1(OC(C)=O)CO[C@@H]1C[C@@H]2O [Taxol, paclitaxel, reference compound]

A:
1. 1
2. 1
3. 3

Okay, here is my list. What is Toxic Deaths for each of these?
1. CCC(=O)O[C@H]1C(=O)[C@@]2(C)[C@H]([C@H](OC(=O)c3ccccc3)[C@]3(O)C[C@H](OC(=O)[C@H](O)[C@@H](NC(=O)c4ccccc4)C4CC4)C(C)=C1C3(C)C)[C@]1(OC(C)=O)CO[C@@H]1C[C@@H]2O
2. CC(=O)O[C@@]12CO[C@@H]1C[C@H](O)[C@@]1(C)C(=O)[C@H](OC(=O)C3CC3)C3=C(C)[C@@H](OC(=O)[C@H](O)[C@@H](NC(=O)OC(C)(C)C)c4cccs4)C[C@@](O)([C@@H](OC(=O)c4ccccc4)[C@H]21)C3(C)C

A:
1. 0
2. 6

Okay, here is my list. What is Toxic Deaths for each of these?
1. CCC(=O)O[C@H]1C(=O)[C@@]2(C)[C@H]([C@H](OC(=O)c3ccccc3)[C@]3(O)C[C@H](OC(=O)[C@H](O)[C@H](C=C(C)C)NC(=O)OC(C)(C)C)C(C)=C1C3(C)C)[C@]1(OC(C)=O)CO[C@@H]1C[C@@H]2O
2. CCC(=O)O[C@H]1C(=O)[C@@]2(C)[C@H]([C@H](OC(=O)c3ccccc3)[C@]3(O)C[C@H](OC(=O)[C@H](O)[C@@H](NC(=O)OC(C)(C)C)c4ccccn4)C(C)=C1C3(C)C)[C@]1(OC(C)=O)CO[C@@H]1C[C@@H]2O

A:
[0, 0]

----------
# System: A2780 ovarian carcinoma
# conditions: A2780; i.v. qd x 1
Field: survival extension compared to Group 1 controls. Provide a value for each of the compounds that follow.
Answers are plain numbers, in %.

Below, each entry is followed by its recorded survival extension compared to Group 1 controls result.
INSERT INTO assay_data (compound, readout_units, test_value) VALUES
  ('CC(=O)O[C@@]12CO[C@@H]1C[C@H](O)[C@@]1(C)C(=O)[C@H](OC(=O)C3CC3)C3=C(C)[C@@H](OC(=O)[C@H](O)[C@@H](NC(=O)c4ccccc4)c4ccco4)C[C@@](O)([C@@H](OC(=O)c4ccccc4)[C@H]21)C3(C)C', '%', 268),
  ('CC(=O)O[C@H]1C(=O)[C@@]2(C)[C@H]([C@H](OC(=O)c3ccccc3)[C@]3(O)C[C@H](OC(=O)[C@H](O)[C@@H](NC(=O)c4ccccc4)c4ccccc4)C(C)=C1C3(C)C)[C@]1(OC(C)=O)CO[C@@H]1C[C@@H]2O [Taxol, paclitaxel, reference compound]', '%', 87),
  ('CCC(=O)O[C@H]1C(=O)[C@@]2(C)[C@H]([C@H](OC(=O)c3ccccc3)[C@]3(O)C[C@H](OC(=O)[C@H](O)[C@@H](NC(=O)c4ccccc4)c4ccco4)C(C)=C1C3(C)C)[C@]1(OC(C)=O)CO[C@@H]1C[C@@H]2O', '%', 214),
  ('CC(=O)O[C@@]12CO[C@@H]1C[C@H](O)[C@@]1(C)C(=O)[C@H](O)C3=C(C)[C@@H](OC(=O)[C@H](O)[C@@H](NC(=O)OC(C)(C)C)c4ccccc4)C[C@@](O)([C@@H](OC(=O)c4ccccc4)[C@H]21)C3(C)C [Taxotere, docetaxel, reference compound]', '%', 134);

Q: // Input: CCCC(=O)O[C@H]1C(=O)[C@@]2(C)[C@H]([C@H](OC(=O)c3ccccc3)[C@]3(O)C[C@H](OC(=O)[C@H](O)[C@@H](NC(=O)OC(C)(C)C)c4ccccn4)C(C)=C1C3(C)C)[C@]1(OC(C)=O)CO[C@@H]1C[C@@H]2O . Output its survival extension compared to Group 1 controls only.
A: 269
